Assay Procedure: Drug level in C57BL/6J mouse plasma at 150 mg/kg, ip measured after 4 hrs by LC-MS/MS analysis
Type: ADME, organism-based
Measured Metric: concentration at 4 h

Let me know recorded concentration at 4 h for Cc1ccc(NC(=O)c2ccc(CCN(C)C)cc2C(F)(F)F)cc1Nc1nccc(-c2cccnc2)n1 , thanks.
11.6 µM

---

Assay Procedure: Stability in mouse liver microsomes assessed as parent compound remaining level at 1 uM after 1 hrs by HPLC-MS/MS analysis
Assay type: ADME, Microsome
Test Conditions: read-out: Stabilty
Kindly supply the reported remaining at 1 h, 1 µM values for the records listed here.

Let me know recorded remaining at 1 h, 1 µM for CS(=O)(=O)O.Cc1ccc(NC(=O)c2ccc(CN3CCN(C)CC3)cc2)cc1Nc1nccc(-c2cccnc2)n1 [IMATINIB MESYLATE] , thanks.
1.7%

Let me know recorded remaining at 1 h, 1 µM for Cc1ccc(NC(=O)c2ccc(CCN(C)C)cc2)cc1Nc1nccc(-c2cccnc2)n1 , thanks.
1.3%

---

Assay Procedure: Stability in human liver microsomes assessed as parent compound remaining level at 1 uM after 1 hrs by HPLC-MS/MS analysis
Format: ADME, Microsome
Test Conditions: read-out: Stabilty
Measured Metric: remaining at 1 h, 1 µM
Write down the value, and be sure its unit follows.

Let me know recorded remaining at 1 h, 1 µM for Cc1ccc(NC(=O)c2ccc(CCN(C)C)cc2)cc1Nc1nccc(-c2cccnc2)n1 , thanks.
29.2%

Let me know recorded remaining at 1 h, 1 µM for CS(=O)(=O)O.Cc1ccc(NC(=O)c2ccc(CN3CCN(C)CC3)cc2)cc1Nc1nccc(-c2cccnc2)n1 [IMATINIB MESYLATE] , thanks.
15.9%

---

Assay Procedure: Stability in human liver microsomes assessed as parent compound remaining level at 10 uM after 0.5 hrs by HPLC-MS/MS analysis
Assay type: ADME, Microsome
Test Conditions: read-out: Stabilty
Measured Metric: remaining at 0.5 h, 10 µM (%)
// return numeric value only (unit: %, not printed)

Let me know recorded remaining at 0.5 h, 10 µM for CS(=O)(=O)O.Cc1ccc(NC(=O)c2ccc(CN3CCN(C)CC3)cc2)cc1Nc1nccc(-c2cccnc2)n1 [IMATINIB MESYLATE] , thanks.
95.4

Let me know recorded remaining at 0.5 h, 10 µM for Cc1ccc(NC(=O)c2ccc(CCN(C)C)cc2)cc1Nc1nccc(-c2cccnc2)n1 , thanks.
77.1

---

Assay Procedure: Stability in mouse liver microsomes assessed as parent compound remaining level at 10 uM after 1 hrs by HPLC-MS/MS analysis
Type: ADME, Microsome
Test Conditions: read-out: Stabilty
Kindly supply the reported remaining at 1 h, 10 µM values for the records listed here.
// return numeric value only (unit: %, not printed)

Let me know recorded remaining at 1 h, 10 µM for Cc1ccc(NC(=O)c2ccc(CCN(C)C)cc2)cc1Nc1nccc(-c2cccnc2)n1 , thanks.
2.3

Let me know recorded remaining at 1 h, 10 µM for CS(=O)(=O)O.Cc1ccc(NC(=O)c2ccc(CN3CCN(C)CC3)cc2)cc1Nc1nccc(-c2cccnc2)n1 [IMATINIB MESYLATE] , thanks.
5.1

---

Kindly supply the reported concentration at 4 h values for the records listed here.
Assay Procedure: Drug level in C57BL/6J mouse plasma at 50 mg/kg, ip measured after 4 hrs by LC-MS/MS analysis
Assay type: ADME, organism-based
// return numeric value only (unit: nM, not printed)

Let me know recorded concentration at 4 h for Cc1ccc(NC(=O)c2ccc(N3CCN(C)CC3)cc2)cc1Nc1nccc(-c2cccnc2)n1 , thanks.
1000

Let me know recorded concentration at 4 h for Cc1ccc(NC(=O)c2ccc(C3CCCN(C)C3)cc2)cc1Nc1nccc(-c2cccnc2)n1 (centres undefined) , thanks.
2300

Let me know recorded concentration at 4 h for Cc1ccc(NC(=O)c2ccc(CCN(C)C)cc2)cc1Nc1nccc(-c2cccnc2)n1 , thanks.
2500

Let me know recorded concentration at 4 h for CS(=O)(=O)O.Cc1ccc(NC(=O)c2ccc(CN3CCN(C)CC3)cc2)cc1Nc1nccc(-c2cccnc2)n1 [IMATINIB MESYLATE] , thanks.
100

---

Assay Procedure: Stability in mouse liver microsomes assessed as parent compound remaining level at 10 uM after 0.5 hrs by HPLC-MS/MS analysis
Assay type: ADME, Microsome
Test Conditions: read-out: Stabilty
Measured Metric: remaining at 0.5 h, 10 µM (%)
// return numeric value only (unit: %, not printed)

Let me know recorded remaining at 0.5 h, 10 µM for CS(=O)(=O)O.Cc1ccc(NC(=O)c2ccc(CN3CCN(C)CC3)cc2)cc1Nc1nccc(-c2cccnc2)n1 [IMATINIB MESYLATE] , thanks.
22.5

Let me know recorded remaining at 0.5 h, 10 µM for Cc1ccc(NC(=O)c2ccc(CCN(C)C)cc2)cc1Nc1nccc(-c2cccnc2)n1 , thanks.
15.1

---

Kindly supply the reported remaining at 0.5 h, 1 µM values for the records listed here.
Assay Procedure: Stability in human liver microsomes assessed as parent compound remaining level at 1 uM after 0.5 hrs by HPLC-MS/MS analysis
Type: ADME, Microsome
Test Conditions: read-out: Stabilty
// return numeric value only (unit: %, not printed)

Let me know recorded remaining at 0.5 h, 1 µM for Cc1ccc(NC(=O)c2ccc(CCN(C)C)cc2)cc1Nc1nccc(-c2cccnc2)n1 , thanks.
61.9

Let me know recorded remaining at 0.5 h, 1 µM for CS(=O)(=O)O.Cc1ccc(NC(=O)c2ccc(CN3CCN(C)CC3)cc2)cc1Nc1nccc(-c2cccnc2)n1 [IMATINIB MESYLATE] , thanks.
40.4

---

Assay Procedure: Drug level in C57BL/6J mouse brain at 150 mg/kg, ip measured after 4 hrs by LC-MS/MS analysis
Format: ADME, organism-based
Test Conditions: read-out: Drug uptake
Measured Metric: concentration at 4 h (ng/g)
// return numeric value only (unit: ng/g, not printed)

Let me know recorded concentration at 4 h for Cc1ccc(NC(=O)c2ccc(CCN(C)C)cc2C(F)(F)F)cc1Nc1nccc(-c2cccnc2)n1 , thanks.
60

---

Assay Procedure: Stability in human liver microsomes assessed as parent compound remaining level at 10 uM after 1 hrs by HPLC-MS/MS analysis
Assay type: ADME, Microsome
Test Conditions: read-out: Stabilty
Measured Metric: remaining at 1 h, 10 µM (%)
// return numeric value only (unit: %, not printed)

Let me know recorded remaining at 1 h, 10 µM for CS(=O)(=O)O.Cc1ccc(NC(=O)c2ccc(CN3CCN(C)CC3)cc2)cc1Nc1nccc(-c2cccnc2)n1 [IMATINIB MESYLATE] , thanks.
66.4

Let me know recorded remaining at 1 h, 10 µM for Cc1ccc(NC(=O)c2ccc(CCN(C)C)cc2)cc1Nc1nccc(-c2cccnc2)n1 , thanks.
56.5

---

Assay Procedure: Drug level in C57BL/6J mouse brain at 50 mg/kg, ip measured after 4 hrs by LC-MS/MS analysis
Assay type: ADME, organism-based
Test Conditions: read-out: Drug uptake
Kindly supply the reported concentration at 4 h values for the records listed here.
// return numeric value only (unit: ng/g, not printed)

Let me know recorded concentration at 4 h for Cc1ccc(NC(=O)c2ccc(C3CCCN(C)C3)cc2)cc1Nc1nccc(-c2cccnc2)n1 (stereo not given) , thanks.
39

Let me know recorded concentration at 4 h for Cc1ccc(NC(=O)c2ccc(N3CCN(C)CC3)cc2)cc1Nc1nccc(-c2cccnc2)n1 , thanks.
21

Let me know recorded concentration at 4 h for Cc1ccc(NC(=O)c2ccc(C3CCN(C)CC3)cc2)cc1Nc1nccc(-c2cccnc2)n1 , thanks.
127

Let me know recorded concentration at 4 h for Cc1ccc(NC(=O)c2ccc(CCN(C)C)cc2)cc1Nc1nccc(-c2cccnc2)n1 , thanks.
27
